All figures here come from patent US20230263822A1.

- condition.label: mouse, in vivo, sc, 50 mg/kg
e = 2'-O-(2-methoxyethyl) (MOE); d = 2'-deoxy (DNA)
# fulfilled = ALT below 100 IU/L (exclusive); not fulfilled = ALT at/above 100 IU/L

>>> assigned_category("ISIS 416867: MOE gapmer, nucleobases 1275 to 1318 of SEQ ID NO: 1 (Table 8) (antisense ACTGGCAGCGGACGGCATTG; MOE gapmer, wing and gap sizes not given here)")
"fulfilled"
>>> assigned_category("ISIS 416854: MOE gapmer, nucleobases 1275 to 1318 of SEQ ID NO: 1 (Table 8) (antisense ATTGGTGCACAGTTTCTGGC; MOE gapmer, wing and gap sizes not given here)")
"not fulfilled"
>>> assigned_category("ISIS 416855: MOE gapmer, nucleobases 1275 to 1318 of SEQ ID NO: 1 (Table 8) (antisense CATTGGTGCACAGTTTCTGG; MOE gapmer, wing and gap sizes not given here)")
"not fulfilled"
>>> assigned_category("ISIS 416850: MOE gapmer, nucleobases 1275 to 1318 of SEQ ID NO: 1 (Table 8) (antisense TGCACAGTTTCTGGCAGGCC; MOE gapmer, wing and gap sizes not given here)")
"fulfilled"
>>> assigned_category("ISIS 412223: 5-10-5 MOE gapmer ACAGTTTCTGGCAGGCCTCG (sugars from the 5' end e5 d10 e5, backbone and methylation of C not given here)")
"fulfilled"
>>> assigned_category("ISIS 416861: MOE gapmer, nucleobases 1275 to 1318 of SEQ ID NO: 1 (Table 8) (antisense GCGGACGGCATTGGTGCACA; MOE gapmer, wing and gap sizes not given here)")
"fulfilled"
>>> assigned_category("ISIS 412224: 5-10-5 MOE gapmer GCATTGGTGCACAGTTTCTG (sugars from the 5' end e5 d10 e5, backbone and methylation of C not given here)")
"not fulfilled"
>>> assigned_category("ISIS 413482: 5-10-5 MOE gapmer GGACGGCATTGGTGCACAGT (sugars from the 5' end e5 d10 e5, backbone and methylation of C not given here)")
"fulfilled"
>>> assigned_category("ISIS 416862: MOE gapmer, nucleobases 1275 to 1318 of SEQ ID NO: 1 (Table 8) (antisense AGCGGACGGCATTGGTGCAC; MOE gapmer, wing and gap sizes not given here)")
"not fulfilled"
>>> assigned_category("ISIS 416865: MOE gapmer, nucleobases 1275 to 1318 of SEQ ID NO: 1 (Table 8) (antisense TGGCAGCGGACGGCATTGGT; MOE gapmer, wing and gap sizes not given here)")
"not fulfilled"
>>> assigned_category("ISIS 412225: 5-10-5 MOE gapmer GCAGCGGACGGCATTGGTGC (sugars from the 5' end e5 d10 e5, backbone and methylation of C not given here)")
"fulfilled"
>>> assigned_category("ISIS 416851: MOE gapmer, nucleobases 1275 to 1318 of SEQ ID NO: 1 (Table 8) (antisense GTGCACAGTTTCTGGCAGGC; MOE gapmer, wing and gap sizes not given here)")
"fulfilled"
>>> assigned_category("ISIS 416860: MOE gapmer, nucleobases 1275 to 1318 of SEQ ID NO: 1 (Table 8) (antisense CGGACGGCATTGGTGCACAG; MOE gapmer, wing and gap sizes not given here)")
"not fulfilled"
>>> assigned_category("ISIS 416866: MOE gapmer, nucleobases 1275 to 1318 of SEQ ID NO: 1 (Table 8) (antisense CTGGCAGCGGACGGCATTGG; MOE gapmer, wing and gap sizes not given here)")
"fulfilled"
>>> assigned_category("ISIS 416863: MOE gapmer, nucleobases 1275 to 1318 of SEQ ID NO: 1 (Table 8) (antisense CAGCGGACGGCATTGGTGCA; MOE gapmer, wing and gap sizes not given here)")
"fulfilled"
>>> assigned_category("ISIS 416849: MOE gapmer, nucleobases 1275 to 1318 of SEQ ID NO: 1 (Table 8) (antisense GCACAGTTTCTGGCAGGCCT; MOE gapmer, wing and gap sizes not given here)")
"not fulfilled"
>>> assigned_category("ISIS 416856: MOE gapmer, nucleobases 1275 to 1318 of SEQ ID NO: 1 (Table 8) (antisense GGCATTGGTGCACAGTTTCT; MOE gapmer, wing and gap sizes not given here)")
"not fulfilled"
>>> assigned_category("ISIS 416859: MOE gapmer, nucleobases 1275 to 1318 of SEQ ID NO: 1 (Table 8) (antisense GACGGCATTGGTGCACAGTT; MOE gapmer, wing and gap sizes not given here)")
"not fulfilled"
